The reported numbers originate from PubChem BioAssay (NCI).

System: SW-620 colon
assay-summary: NCI-60 one-dose screen, 48 h (100 = growth as untreated, 0 = no growth, -100 = all killed)
setup-conditions: 10 µM unless noted
About 83,000 compounds went through this panel and 20% of them were active in at least one assay; those are over-represented in the sample as a whole.

| molecule | growth [%] |
| --- | --- |
| NS(=O)(=O)c1cnccc1-n1ccc(=O)c(S(N)(=O)=O)c1 | 97 |
| C=C1C(=O)O[C@H]2[C@H]1CC/C(COC(=O)/C=C/C(=O)NCc1ccc(Cn3c(=O)sn(-c4ccccc4)c3=O)cc1)=C\CC[C@@]1(C)O[C@@H]21 | -64.5 |
| C=C1c2c(C)nn(-c3ccc(N)cc3)c2N(C)C23CC1C1(C)c4c(C)nn(-c5ccc(N)cc5)c4N(C)C(C)(CC12)C3 (stereo not given) | 77.1 |
| Cc1ccc(NSc2ccccc2[N+](=O)[O-])cc1 | 26.9 |
| Cc1ccc(S(=O)(=O)Nc2sccc2-c2nc(-c3ccccc3)no2)cc1 | 97 |
| O=C1CSC(c2ccccc2O)N1c1nnc(Cn2cnnc2)o1 (stereo not given) | 105 |
| O=C1Nc2ccccc2/C1=N/N=C/c1c[nH]c2ccccc12 | 71.5 |
| Cc1nc(Nc2ccc(NC(=S)Nc3ccccc3)cc2)c2ccccc2n1 | 106 |
| C=C(Cl)COC(=O)C(C)(C)O | 107 |
| O=[N+]([O-])c1ccccc1C(O)Cc1ccc2ccccc2n1 (stereo not given) | 96.7 |
| Cn1ccc(Cc2cnc(N)s2)n1 | 98.9 |
| N=C(N)c1ccc(-c2ccc(-c3ccc(Cl)cc3Cl)o2)cc1 | -67.3 |
| CCCCCCCCn1cc(C2=C(c3coc4ccc(OC)cc34)C(=O)NC2=O)c2ccccc21 | 99.1 |
| CCNCCNc1cc(-c2ccc(C(=O)OC)cc2)c(C#N)c2nc3ccccc3n12 | 2.26 |
| CSc1ccc(Cl)c(C(=O)Nc2sccc2C(N)=O)c1 | 96.5 |
| COc1cccc(-c2cnco2)c1OCc1c(C)c(COc2c(OC)cccc2-c2cnco2)c(C)c(COc2c(OC)cccc2-c2cnco2)c1C | 75 |
| Cc1[nH]c(-c2nc3ccccc3[nH]2)c(C)c1C(=O)N1CCc2sccc2C1 | 89 |
| C=C(C)[C@@H]1CC[C@]2(CN)CC[C@]3(C)[C@H](CC[C@@H]4[C@@]5(C)CCC(N)[C@@](C)(CO)[C@@H]5CC[C@]43C)[C@@H]12 (stereo not given in full) | -76.5 |
| Cc1[nH]c(-c2nc3ccccc3[nH]2)c(C)c1C(=O)N1CCOCC1 | 96.3 |
| O=C(O)CC1Sc2ccccc2NC1=O (stereo not given) | 103 |

====

Tested on: SK-MEL-2 melanoma
assay-summary: NCI-60 one-dose screen, 48 h (100 = growth as untreated, 0 = no growth, -100 = all killed)
setup-conditions: 10 µM unless noted
Compounds without any hit were thinned out: in the full panel of roughly 83,000, 20% have a hit.
property: growth (%)

| compound | property | experimental-value |
| --- | --- | --- |
| Cc1cc(=O)[nH]c(N/N=C/c2cc(Br)ccc2O)n1 | growth | 26.9 |
| O[C@H]1CO[C@H]2[C@@H]1OC[C@@H]2Oc1ccc(Nc2ccnc(Nc3ccc(O[C@H]4CO[C@H]5[C@@H]4OC[C@@H]5O)c(Cl)c3)n2)cc1Cl | growth | 4.23 |
| CS(=O)(=O)c1ccc(-c2nc3cc(Cl)ccc3n2CC(=O)NO)cc1 | growth | 88.2 |
| C=C(C)C1CCC(=C)C2CCC3(C)OC12/C=C(/COC(C)=O)CCC3O (configuration not stated) | growth | 85.4 |
| COc1ccc(C(=O)/C=C/c2cc3c(c(OC)c2)OCC(=O)N3)cc1 | growth | 110 |
| COc1ccc(-c2nc3ccccn3c2/C=C/C(=O)c2cc(OC)c(OC)c(OC)c2)cc1 | growth | 52.6 |
| C=C(C)[C@@H]1CC[C@@]2(C(=O)O)CC[C@]3(C)C(CCC4[C@@]5(C)CCC(OS(=O)(=O)c6ccccc6)C(C)(C)C5CC[C@]43C)C12 (some centres not stated) | growth | 70.3 |
| CCCCCCN(CCCCCC)CC(O)c1cccc2ccc(Cl)cc12 (configuration not stated) | growth | 46.6 |
| CS(=O)(=O)c1ccc(-c2nc3cc(Cl)ccc3n2CC(=O)N/N=C/c2ccc(Cl)cc2)cc1 | growth | 44.3 |
| N#C/C=C(\c1ccc([N+](=O)[O-])cc1)n1nnc2cc(Cl)c(Cl)cc21 | growth | 65.8 |
| O=[N+]([O-])c1ccc(-c2cc3c(Nc4ccc(Cl)c(C(F)(F)F)c4)ncnc3s2)cc1 | growth | -4.98 |
| Cc1nc2ccccc2c(/C=C/c2ccc(Cl)cc2)c1C(=O)/C=C/c1ccc(Cl)cc1 | growth | -13.6 |
| CCCCN(Cc1ccc(C(=O)NO)cc1)C(=O)Nc1ccc(OCCCCCCCCCn2cc(CCCCC(=O)N[C@H](C(=O)N3C[C@H](O)C[C@H]3C(=O)NCc3ccc(-c4scnc4C)cc3)C(C)(C)C)nn2)cc1 | growth | 90.6 |
| Cc1nc(Nc2ccc(NC(=S)Nc3ccccc3)cc2)c2ccccc2n1 | growth | 111 |
| CCCCNC(=O)NS(=O)(=O)c1ccc(N2N=C(c3ccc(C)cc3C)CC2c2ccc(N(C)C)cc2)cc1 (configuration not stated) | growth | 78 |
| O=C1Nc2ccc(Cl)cc2/C1=N/N=C/c1c[nH]c2ccccc12 | growth | 66.3 |
| CC(C)n1nc(C#Cc2cccc3cc(-c4cccc(C(F)(F)F)c4)ncc23)c2c(N)ncnc21 | growth | 42.8 |
| O=C1N(c2ccccc2)C(=S)N[C@]12[C@H](c1ccccc1)C1CCCN1[C@]21C(=O)NC2C=CC(Cl)=C[C@H]21 (some centres not stated) | growth | 91 |
| COc1cc(C(=O)/C=C/c2c(C(F)(F)F)nc3ccccn23)cc(OC)c1OC | growth | -49.3 |
| CC(C)(C)CC(C)(C)Nc1c(-c2ccc(-c3ccccc3)cc2)nc2cnccn12 | growth | 72.2 |
| NS(=O)(=O)c1cnccc1-n1ccc(=O)c(S(N)(=O)=O)c1 | growth | 81.1 |
| CCOc1cc(C2C(Cl)C(=O)N2n2cnnc2)ccc1O (configuration not stated) | growth | 100 |
| Nc1ccc(CCCCc2ccccc2)c(Cl)c1 | growth | 91.2 |
| Cc1nc(Nc2ccc(NC(=S)Nc3ccccc3)cc2)nc2nc(Nc3cccc(Cl)c3)[nH]c(=O)c12 | growth | 88.8 |
| CC1(C)N=C(N)N=C(N)N1c1ccc(Cl)c(Cl)c1 | growth | 64.6 |
| C=C(CNCCc1ccc(O)cc1)[C@@H]1CC[C@]2(COC3CCCCO3)CC[C@]3(C)[C@H](CC[C@@H]4[C@@]5(C)CCC(N)C(C)(C)[C@@H]5CC[C@]43C)[C@@H]12 (some centres not stated) | growth | -82.9 |
| CN(CCC(=O)/C(=C\c1ccccc1)c1ccc(Cl)cc1)Cc1ccccc1 | growth | 58.4 |
| Cl.Fc1c[c-]c(-c2ccccn2)c(F)c1.[Pt].c1ccc(P(c2ccccc2)C([PH+](c2ccccc2)c2ccccc2)[PH+](c2ccccc2)c2ccccc2)cc1 | growth | 7.06 |
| NS(=O)(=O)c1cn(-c2ncnc3nc[nH]c23)ccc1=O | growth | 95.4 |
| CC(=O)c1cc2c(o1)C(=O)c1ccccc1C2=O | growth | -69.4 |
| O=S(=O)(Nc1ccsc1-c1nc(-c2ccccc2)no1)c1cc(Cl)cc(Cl)c1 | growth | 105 |
| CCOC(=O)c1sc(-c2ccc(OS(=O)(=O)c3ccc(C(C)(C)C)cc3)c(C=O)c2)nc1C | growth | 72.7 |
| CCN(CC)CC(=O)Nc1cccc(C(=O)OC(C)C)c1 | growth | 81.9 |
| CCOC(=O)C1C(=O)C=C(c2cnccn2)CC1c1ccc(OC)c(OC)c1 (configuration not stated) | growth | 86.4 |
| N=C(N)c1ccc(-c2ccc(-c3ccc(Cl)c(Cl)c3)o2)nc1 | growth | 108 |
| CCOC(=O)c1cnn2c(-c3ccc(Cl)cc3)nc(NCc3ccccc3)nc12 | growth | 91 |
| O=C1CSC(c2ccccc2)N1c1ccccc1 (configuration not stated) | growth | 74.4 |
